details: in isopropanol, 317.65 K
measure: solubility (mole fraction)

1. Cc1ccc(S(N)(=O)=O)cc1
0.0447

###

conditions: in acetone, 313.15 K
measure: solubility (mole fraction)

1. Cc1ccc(S(N)(=O)=O)cc1
0.211

###

settings: in isobutanol, 273.15 K
measure: solubility (mole fraction)

1. Cc1ccc(S(N)(=O)=O)cc1
0.00456

###

conditions: in acetone, 303.25 K
measure: solubility (mole fraction)

1. Cc1ccc(S(N)(=O)=O)cc1
0.184

###

conditions: in acetone, 283.65 K
measure: solubility (mole fraction)

1) Cc1ccc(S(N)(=O)=O)cc1
0.144

###

conditions: in n-butanol, 313.15 K
measure: solubility (mole fraction)

1) Cc1ccc(S(N)(=O)=O)cc1
0.0303

###

settings: in isopentanol, 313.15 K
measure: solubility (mole fraction)

1) Cc1ccc(S(N)(=O)=O)cc1
0.0251

###

conditions: in n-butanol, 322.15 K
measure: solubility (mole fraction)

1. Cc1ccc(S(N)(=O)=O)cc1
0.044

###

conditions: in cyclopentanone, 303.65 K
measure: solubility (mole fraction)

1) Cc1ccc(S(N)(=O)=O)cc1
0.206

###

conditions: in cyclopentanone, 319.15 K
measure: solubility (mole fraction)

1. Cc1ccc(S(N)(=O)=O)cc1
0.249

###

settings: in acetonitrile, 289.15 K
measure: solubility (mole fraction)

1. Cc1ccc(S(N)(=O)=O)cc1
0.063

###

conditions: in n-pentanol, 303.65 K
measure: solubility (mole fraction)

1) Cc1ccc(S(N)(=O)=O)cc1
0.0182

###

details: in methanol, 293.65 K
measure: solubility (mole fraction)

1. Cc1ccc(S(N)(=O)=O)cc1
0.0544

###

conditions: in ethyl formate, 289.15 K
measure: solubility (mole fraction)

1. Cc1ccc(S(N)(=O)=O)cc1
0.0342

###

details: in n-butanol, 283.65 K
measure: solubility (mole fraction)

1) Cc1ccc(S(N)(=O)=O)cc1
0.0104

###

details: in dichloromethane, 312.15 K
measure: solubility (mole fraction)

1) Cc1ccc(S(N)(=O)=O)cc1
0.0143

###

conditions: in cyclohexanone, 284.15 K
measure: solubility (mole fraction)

1) Cc1ccc(S(N)(=O)=O)cc1
0.139

###

conditions: in ethyl formate, 299.15 K
measure: solubility (mole fraction)

1) Cc1ccc(S(N)(=O)=O)cc1
0.0447

###

settings: in dichloromethane, 273.15 K
measure: solubility (mole fraction)

1) Cc1ccc(S(N)(=O)=O)cc1
0.00336

###

settings: in isobutanol, 313.15 K
measure: solubility (mole fraction)

1. Cc1ccc(S(N)(=O)=O)cc1
0.0236

###

conditions: in acetonitrile, 294.15 K
measure: solubility (mole fraction)

1. Cc1ccc(S(N)(=O)=O)cc1
0.0722

###

details: in isopropanol, 289.15 K
measure: solubility (mole fraction)

1) Cc1ccc(S(N)(=O)=O)cc1
0.0137

###

conditions: in cyclohexanone, 303.65 K
measure: solubility (mole fraction)

1) Cc1ccc(S(N)(=O)=O)cc1
0.18

###

details: in methyl acetate, 273.15 K
measure: solubility (mole fraction)

1) Cc1ccc(S(N)(=O)=O)cc1
0.0494

###

settings: in acetonitrile, 279.15 K
measure: solubility (mole fraction)

1) Cc1ccc(S(N)(=O)=O)cc1
0.047

###

conditions: in dichloromethane, 289.15 K
measure: solubility (mole fraction)

1) Cc1ccc(S(N)(=O)=O)cc1
0.00587

###

conditions: in acetonitrile, 313.15 K
measure: solubility (mole fraction)

1. Cc1ccc(S(N)(=O)=O)cc1
0.121

###

conditions: in isopropanol, 313.15 K
measure: solubility (mole fraction)

1) Cc1ccc(S(N)(=O)=O)cc1
0.0365

###

conditions: in cyclopentanone, 324.75 K
measure: solubility (mole fraction)

1) Cc1ccc(S(N)(=O)=O)cc1
0.266

###

conditions: in cyclopentanone, 313.15 K
measure: solubility (mole fraction)

1) Cc1ccc(S(N)(=O)=O)cc1
0.231

###

conditions: in methyl acetate, 324.75 K
measure: solubility (mole fraction)

1. Cc1ccc(S(N)(=O)=O)cc1
0.148

###

details: in n-butanol, 308.95 K
measure: solubility (mole fraction)

1. Cc1ccc(S(N)(=O)=O)cc1
0.0253

###

details: in acetonitrile, 319.15 K
measure: solubility (mole fraction)

1. Cc1ccc(S(N)(=O)=O)cc1
0.143

###

conditions: in cyclopentanone, 309.15 K
measure: solubility (mole fraction)

1) Cc1ccc(S(N)(=O)=O)cc1
0.218

###

conditions: in methanol, 289.15 K
measure: solubility (mole fraction)

1. Cc1ccc(S(N)(=O)=O)cc1
0.0473

###

settings: in isobutanol, 303.25 K
measure: solubility (mole fraction)

1) Cc1ccc(S(N)(=O)=O)cc1
0.016

###

settings: in isopentanol, 273.15 K
measure: solubility (mole fraction)

1. Cc1ccc(S(N)(=O)=O)cc1
0.00515

###

conditions: in cyclohexanone, 324.75 K
measure: solubility (mole fraction)

1) Cc1ccc(S(N)(=O)=O)cc1
0.244

###

conditions: in ethyl formate, 324.75 K
measure: solubility (mole fraction)

1) Cc1ccc(S(N)(=O)=O)cc1
0.0914

###

settings: in acetone, 322.15 K
measure: solubility (mole fraction)

1) Cc1ccc(S(N)(=O)=O)cc1
0.243

###

details: in n-propanol, 283.65 K
measure: solubility (mole fraction)

1) Cc1ccc(S(N)(=O)=O)cc1
0.013

###

conditions: in acetonitrile, 324.75 K
measure: solubility (mole fraction)

1) Cc1ccc(S(N)(=O)=O)cc1
0.164

###

details: in n-propanol, 279.15 K
measure: solubility (mole fraction)

1) Cc1ccc(S(N)(=O)=O)cc1
0.0111

###

conditions: in acetone, 289.15 K
measure: solubility (mole fraction)

1. Cc1ccc(S(N)(=O)=O)cc1
0.154

###

details: in cyclohexanone, 313.15 K
measure: solubility (mole fraction)

1) Cc1ccc(S(N)(=O)=O)cc1
0.206

###

settings: in n-propanol, 308.95 K
measure: solubility (mole fraction)

1. Cc1ccc(S(N)(=O)=O)cc1
0.0312

###

settings: in ethanol, 283.65 K
measure: solubility (mole fraction)

1) Cc1ccc(S(N)(=O)=O)cc1
0.0233

###

settings: in n-pentanol, 319.15 K
measure: solubility (mole fraction)

1. Cc1ccc(S(N)(=O)=O)cc1
0.0343

###

conditions: in ethanol, 303.25 K
measure: solubility (mole fraction)

1) Cc1ccc(S(N)(=O)=O)cc1
0.0425

###

conditions: in methyl acetate, 309.15 K
measure: solubility (mole fraction)

1. Cc1ccc(S(N)(=O)=O)cc1
0.103
